EXPERIMENTAL_PROTOCOL: APP 5'UTR translational reporter suppression – APP 5'UTR luciferase, SH-SY5Y cells, primary screen (AID 1285)
ASSAY_CONDITIONS: SH-SY5Y APP 5'UTR-luciferase reporter, luminescence; at 2 µM
About 1,600 (0.84%) of roughly 190,000 compounds were called active.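 The calls were made as follows: active = inhibition above a set limit, derived from the sample mean plus 3 SD (cut at about 45% in these data); inconclusive = one replicate passes the limit while the other fails; inactive = the rest.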 This excerpt belongs to a sample that is enriched for actives.
Outcomes: 1 = active, 0 = inactive

>>> print(df.to_string())
                                   compound  class_name
0           O=C1CCCc2c1nc(-c1cccc(Cl)c1)n2O           1
1  O=c1c2c(nc3cc(-c4cccc(Cl)c4)[nH]n13)CCCC2           0
2  COc1ccc(C(=O)Nc2ccccc2C(=O)N/N=C/c2ccccc2OC)cc1           0
3      COc1ccc(C(=O)C[n+]2ccc(N)c(C)c2C)cc1           0
4  COc1cccc(/C=N\NC(=O)C2=NNC(=O)C2C)c1O (stereo unspecified)           0
5  CCOc1ccc(CCNC(=O)C2=C(C)C(=O)OC23CCC(C)CC3)cc1OCC (stereo unspecified)           0

---

Form field: inhibition (one value per entry).
EXPERIMENTAL_PROTOCOL: APP 5'UTR translational reporter suppression – APP 5'UTR luciferase, SH-SY5Y cells, primary screen (AID 1285)
ASSAY_CONDITIONS: SH-SY5Y APP 5'UTR-luciferase reporter, luminescence; at 2 µM; hits give high values
In all, about 190,000 compounds went through this assay and about 1,600 (0.84%) were called active. Shown is part of a subset that was picked to be rich in actives.
OBSERVED_PROPERTY: inhibition (%)

>>> df
                                    molecule  assay_result
 0             O=C(Nc1ccccc1)c1ccc2c(c1)OCO2          58.8
 1                Cc1ccc(NC(=O)OCc2cncs2)cc1         -41.4
 2  COCCOC(=O)C1=C(C)NC(=O)CC1c1cc2c(cc1Br)OCO2 (configuration not stated)           3.7
 3  COc1ccc(C2CC(=O)Nc3cc(C)c(C)cc32)c(OC)c1OC (configuration not stated)          -0.3
 4         Cc1cc(/C=N/NC(N)=O)c(C)n1C1CCCCC1          -4.6
 5  CCCCCCCCCCOC(=O)C[N+](C)(C)CC1CCCCC1O (configuration not stated)          -4.7
 6  CC(=O)N1c2ccccc2N(Cc2ccc([N+](=O)[O-])cc2)C(=O)C1(C)C         -12.9
 7             COc1ccc(NC(=S)Nc2ccccc2Cl)cn1          -6.6
 8  Cc1ccc(/C=N/NC(=O)C2=NNC(c3ccccc3)(c3ccccc3)C2)c(O)c1            73
 9  O=c1c2cc3c(=O)n(CC4CCCO4)c(=O)c3cc2c(=O)n1CC1CCCO1 (configuration not stated)         -21.8
10   O=C(Nc1ccc(N2CCOCC2)cc1)c1ccc2c(c1)OCO2         -48.7
11  COc1cc2c(cc1/C=C1/NC(=O)N(c3ccccc3)C1=O)OCO2         -15.4
12  Cc1ccc(-c2nn(-c3ccccc3)cc2/C=N/NC(=O)c2ccc3c(c2)OCO3)cc1           4.8
13  O=C(Nc1cccc([N+](=O)[O-])c1)c1ccc2c(c1)OCO2         -43.1
14  CC1(C)CC(=O)C(N=Nc2ccc(S(=O)(=O)N3CCCCCC3)cc2)=C(O)C1           9.4
15  CCCOc1ccccc1C1CC(=O)Nc2cc3c(cc21)OCO3 (configuration not stated)          92.3
16  CCOc1ccc(NC(=O)COc2ccc(C(=O)NC3CCCc4ccccc43)cc2OC)cc1 (configuration not stated)         -14.3
17  O=C1c2cccc3c([N+](=O)[O-])ccc(c23)C(=O)N1CC1CCCO1 (configuration not stated)            53
18  O=C(NCc1ccc2c(c1)OCO2)c1ccc2c(c1)C(=O)N(CC1CCCO1)C2=O (configuration not stated)           3.9
19  C[N+]1(CC(O)COc2ccccc2)CCN(C(=O)c2ccc([N+](=O)[O-])cc2)CC1 (configuration not stated)           0.3
20  CC(Sc1nnnn1C)C(=O)NC(=O)NC1CCCCC1 (configuration not stated)           -31
21  Cc1cccc(-n2c(C)cc(/C=N\NC(=O)c3cccs3)c2C)c1         -62.9

---

EXPERIMENTAL_PROTOCOL: APP 5'UTR translational reporter suppression – APP 5'UTR luciferase, SH-SY5Y cells, primary screen (AID 1285)
ASSAY_CONDITIONS: SH-SY5Y APP 5'UTR-luciferase reporter, luminescence; at 2 µM
In all, about 190,000 compounds went through this assay and about 1,600 (0.84%) were called active.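 Rule for the calls: active = inhibition above a set limit, derived from the sample mean plus 3 SD (cut at about 45% in these data); inconclusive = one replicate passes the limit while the other fails; inactive = the rest.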 Only a selection was taken, and actives are over-represented in it overall.
Classes used: true (1) = active, false (0) = inactive

In [3]: df
Out[3]:
                                    compound  class_name
 0  Cc1cc(C)n(CC(O)CN(c2ccccc2)S(=O)(=O)c2ccc3ccccc3c2)n1 (stereo not given)   false (0)
 1                    O=C(COc1ccccc1F)NC1CC1   false (0)
 2  COc1cc(OC)cc(C(=O)OCC(=O)Nc2sccc2C(N)=O)c1   false (0)
 3  CCOc1cc(/C=C(/C#N)c2ccc(Cl)cc2)cc(Cl)c1OCC(=O)O    true (1)
 4  CCCc1nc(SCC(=O)Nc2ccc(S(=O)(=O)N(C)C)cc2)c2ccccc2n1   false (0)
 5  Cc1cc(N2CCN(C)CC2)nc2ccc(NC(=S)N3CCOCC3)cc12   false (0)
 6  C=CCn1c(SCC(=O)Nc2nc3ccccc3s2)nnc1-c1ccccc1O   false (0)
 7      Cc1ccc(NC(=O)c2ccc(Oc3ncccn3)cc2)cc1   false (0)
 8  Cc1cc(N2CCOCC2)nc2ccc(NC(=S)N3CCN(Cc4ccccc4)CC3)cc12   false (0)
 9  O=C(O)c1ccc(N/N=C/c2cn(-c3ccccc3)nc2-c2cccs2)cc1   false (0)
10                  CCN(CC)CCCSc1nc2ccccc2s1   false (0)
11  Cc1[nH]c2ccccc2c1/C=N\NC(=O)Cn1nnc(-c2ccccc2)n1   false (0)
12  C=CCc1ccc(OCC(O)CN2CCN(Cc3ccccc3)CC2)c(OC)c1 (stereo not given)   false (0)
13  CN(Cc1ccc2nsnc2c1)Cc1nc(Cc2cccc(F)c2)no1   false (0)
14  COc1cccc(-c2nn(-c3ccccc3)cc2/C=C(\C#N)C(=O)NCCCn2ccnc2)c1   false (0)
15  O=C(CN1CCN(S(=O)(=O)c2ccc(F)cc2)CC1)Nc1ccccc1F   false (0)
16  COc1ccc(Cl)cc1NC(=O)NC(C)C(C)(C)C (stereo not given)   false (0)
17  Cc1ccc(C(=O)NN(CCC#N)C2=NS(=O)(=O)c3ccccc32)cc1   false (0)
18  C[C@@H]1C[C@@H]2O[C@H]2/C=C\C=C\C(=O)Cc2c(Cl)c(O)cc(O)c2C(=O)O1    true (1)
19  C=CS(=O)c1sc(Cl)c(N2CCOCC2)c1[N+](=O)[O-] (stereo not given)    true (1)
20  O=C(Nc1ccccc1C(=O)O)c1cc(S(=O)(=O)N2CCCCC2)cs1   false (0)
21                 CCOc1c(Cl)cc(/C=N/O)cc1OC   false (0)
22                  Nc1ccc(Oc2ccc(Cl)cc2)cc1   false (0)
23       COC(=O)CSc1ncnc2c1cnn2-c1ccc(C)cc1C   false (0)
24  CCOC(=O)C1=C(c2ccc(OC)cc2)C(=O)c2ccccc2C1=O    true (1)
25            COc1ccc(C(=O)Nc2ccc(F)cc2F)cc1   false (0)
26  CCCCC(C(=O)OCC(=O)c1ccc(OC)cc1)N1C(=O)c2ccccc2C1=O (stereo not given)   false (0)
27  COc1ccc(Cc2n[nH]c(=S)n2NC(=O)Nc2ccc(C)cc2)cc1   false (0)
28  CC(C)N(C(=O)CSc1nc(COc2ccccc2)nc2ccccc12)C(C)C    true (1)
29                   Cc1ccc(Oc2ccc(N)cc2)cc1   false (0)
30   O=C(COc1cc(Cl)c(Cl)cc1Cl)NC(=O)NC1CCCC1    true (1)
31  CCOc1cc(C(=O)N2CCc3cc(OC)c(OC)cc3C2)ccc1OC(F)F    true (1)
32  COc1ccc(Br)cc1/C=N/NC(=O)c1cccc(S(=O)(=O)N2CCOCC2)c1   false (0)
33  N=C1/C(=C/c2cccn2-c2cccc([N+](=O)[O-])c2)C(=O)N=C2SC=CN12   false (0)
34  Cn1c(CCC(=O)Nc2ccccc2F)nnc1SCC(=O)Nc1ccccc1Cl   false (0)
35  CCOC(=O)c1ccc(N2C(=O)CC(N3CCN(C(=O)c4ccccc4)CC3)C2=O)cc1 (stereo not given)   false (0)
36  CCOc1ccc(N2CC(C(=O)NCCN3C(=O)S/C(=C\c4cccnc4)C3=O)CC2=O)cc1 (stereo not given)   false (0)
37  C/C(=N\NC(=O)c1ccc(CSc2nc(C)cc(C)n2)cc1)C1CCCCC1   false (0)
38           CCOC(=O)CN/C=C(\C#N)c1ccc(F)cc1   false (0)
39  C/C(=C\c1ccccc1)C1NC(=O)c2c(sc3c2CCCC3)N1 (stereo not given)   false (0)
40             CC(=O)Nc1nc(N(C)C)nc(N(C)C)n1   false (0)
41  C=CCn1c(SCC(=O)NCc2ccccc2)nnc1-c1cc(Br)ccc1O    true (1)
42    COCCN(C(=S)Nc1ccccc1OC)C1CCN(C(C)C)CC1   false (0)
43      O=C(COc1cc(Cl)c(Cl)cc1Cl)NCCc1ccccn1   false (0)
44  COc1cc2c(cc1OC)CN(C(=O)c1cc(=O)c3ccccc3o1)CC2   false (0)
